Values were extracted from ChEMBL document CHEMBL5724806.

# assay-name: The drug is tested on the gut metagenome community of T-01 with ENA study accession number: PRJEB31790 for biotransformation under anaerobic condition. The drug concentrations were measured over 7 timepoints collected between 0 and 12 hours of incubation by liquid-chromatography-coupled mass spectrometry (LC–MS)
# Type: ADME
# Design: dose 5 uM, timepoint 0, 0.75, 1.5, 3, 6, 9, 12 hours
# condition-details: 5 µM
result-type: Bacterial Biotransformation

Here are 4 compounds together with their reported answers.
compound | Bacterial Biotransformation
CNC(=C[N+](=O)[O-])NCCSCc1ccc(CN(C)C)o1 [RANITIDINE] | Compound NOT metabolized
C[C@H]1C[C@@H]2[C@H]([C@@H](O)C[C@@]3(C)[C@H]2CC[C@]3(O)C(=O)CO)[C@@]2(C)C=CC(=O)C=C12 [METHYLPREDNISOLONE] | Compound NOT metabolized
CN(Cc1cnc2nc(N)nc(N)c2n1)c1ccc(C(=O)N[C@@H](CCC(=O)O)C(=O)O)cc1 [METHOTREXATE] | Compound NOT metabolized
C[C@]12CCC(=O)C=C1CC[C@@H]1[C@@H]2C(=O)C[C@@]2(C)[C@H]1CC[C@]2(O)C(=O)CO [CORTISONE] | Compound metabolized

Hi! Can you tell me Bacterial Biotransformation for each of these compounds?
1. NS(=O)(=O)c1cc(C(=O)O)c(NCc2ccco2)cc1Cl [FUROSEMIDE]
2. COc1c(C)c2c(c(O)c1C/C=C(\C)CCC(=O)OCCN1CCOCC1)C(=O)OC2 [MYCOPHENOLATE MOFETIL]
3. CCC(C)(C)C(=O)O[C@H]1C[C@@H](C)C=C2C=C[C@H](C)[C@H](CC[C@@H]3C[C@@H](O)CC(=O)O3)[C@H]21 [SIMVASTATIN]
4. C[C@]12C=CC(=O)C=C1CC[C@@H]1[C@@H]2[C@@H](O)C[C@@]2(C)[C@H]1CC[C@]2(O)C(=O)CO [PREDNISOLONE]
5. CO[C@H]1C[C@@H]2CC[C@@H](C)[C@@](O)(O2)C(=O)C(=O)N2CCCC[C@H]2C(=O)O[C@H]([C@H](C)C[C@@H]2CC[C@@H](O)[C@H](OC)C2)CC(=O)[C@H](C)/C=C(\C)[C@@H](O)[C@@H](OC)C(=O)[C@H](C)C[C@H](C)/C=C/C=C/C=C/1C [SIROLIMUS]

Compound NOT metabolized
Compound metabolized
Compound NOT metabolized
Compound NOT metabolized
Compound NOT metabolized

Hi! Can you tell me Bacterial Biotransformation for each of these compounds?
1. C[C@H]1C[C@H]2[C@@H]3CCC4=CC(=O)C=C[C@]4(C)[C@@]3(F)[C@@H](O)C[C@]2(C)[C@@]1(O)C(=O)CO [BETAMETHASONE]
2. C=CC[C@@H]1/C=C(\C)C[C@H](C)C[C@H](OC)[C@H]2O[C@@](O)(C(=O)C(=O)N3CCCC[C@H]3C(=O)O[C@H](/C(C)=C/[C@@H]3CC[C@@H](O)[C@H](OC)C3)[C@H](C)[C@@H](O)CC1=O)[C@H](C)C[C@@H]2OC.O [TACROLIMUS]
3. CC(C)NCC(O)COc1ccc(CC(N)=O)cc1 (centres undefined) [ATENOLOL]
4. CCCC1O[C@@H]2C[C@H]3[C@@H]4CCC5=CC(=O)C=C[C@]5(C)[C@H]4[C@@H](O)C[C@]3(C)[C@]2(C(=O)CO)O1 (some centres undefined) [BUDESONIDE]
5. C[C@@H]1C[C@H]2[C@@H]3CCC4=CC(=O)C=C[C@]4(C)[C@@]3(F)[C@@H](O)C[C@]2(C)[C@@]1(O)C(=O)CO [DEXAMETHASONE]
6. CCOc1nc2cccc(C(=O)O)c2n1Cc1ccc(-c2ccccc2-c2nnn[nH]2)cc1
7. C[C@]12CCC(=O)C=C1CC[C@@H]1[C@@H]2[C@@H](O)C[C@@]2(C)[C@H]1CC[C@]2(O)C(=O)CO [HYDROCORTISONE]

["Compound NOT metabolized", "Compound metabolized", "Compound NOT metabolized", "Compound metabolized", "Compound NOT metabolized", "Compound NOT metabolized", "Compound metabolized"]

Hi! Can you tell me Bacterial Biotransformation for each of these compounds?
1. CCOC(=O)[C@H](CCc1ccccc1)N[C@@H](C)C(=O)N1[C@H](C(=O)O)C[C@@H]2CCC[C@@H]21
2. COc1ccc([C@@H]2Sc3ccccc3N(CCN(C)C)C(=O)[C@@H]2OC(C)=O)cc1 [DILTIAZEM]
3. Cn1cnc([N+](=O)[O-])c1Sc1ncnc2nc[nH]c12 [AZATHIOPRINE]
4. CCOC(=O)C1=C(COCCN)NC(C)=C(C(=O)OC)C1c1ccccc1Cl (centres undefined) [AMLODIPINE]
5. C[C@]12C=CC(=O)C=C1CC[C@@H]1[C@@H]2C(=O)C[C@@]2(C)[C@H]1CC[C@]2(O)C(=O)CO [PREDNISONE]
6. CO[C@H]1C[C@@H]2CC[C@@H](C)[C@@](O)(O2)C(=O)C(=O)N2CCCC[C@H]2C(=O)O[C@H]([C@H](C)C[C@@H]2CC[C@@H](OCCO)[C@H](OC)C2)CC(=O)[C@H](C)/C=C(\C)[C@@H](O)[C@@H](OC)C(=O)[C@H](C)C[C@H](C)/C=C/C=C/C=C/1C [EVEROLIMUS]
7. COc1c(C)c2c(c(O)c1C/C=C(\C)CCC(=O)O)C(=O)OC2 [MYCOPHENOLIC ACID]
8. C[C@@H](NCCCc1cccc(C(F)(F)F)c1)c1cccc2ccccc12

1. Compound NOT metabolized
2. Compound NOT metabolized
3. Compound metabolized
4. Compound NOT metabolized
5. Compound metabolized
6. Compound NOT metabolized
7. Compound NOT metabolized
8. Compound metabolized

###

# assay-name: The drug is tested on the gut metagenome community of A-02 with ENA study accession number: PRJEB31790 for biotransformation under anaerobic condition. The drug concentrations were measured over 7 timepoints collected between 0 and 12 hours of incubation by liquid-chromatography-coupled mass spectrometry (LC–MS)
# Format: ADME
# Parameters: dose 5 uM, timepoint 0, 0.75, 1.5, 3, 6, 9, 12 hours
# condition-details: 5 µM
result-type: Bacterial Biotransformation

Here are 5 molecules together with their reported answers.
molecule | result
C[C@]12C=CC(=O)C=C1CC[C@@H]1[C@@H]2[C@@H](O)C[C@@]2(C)[C@H]1CC[C@]2(O)C(=O)CO | Compound metabolized
CN(Cc1cnc2nc(N)nc(N)c2n1)c1ccc(C(=O)N[C@@H](CCC(=O)O)C(=O)O)cc1 [METHOTREXATE] | Compound metabolized
COc1ccc([C@@H]2Sc3ccccc3N(CCN(C)C)C(=O)[C@@H]2OC(C)=O)cc1 | Compound metabolized
CO[C@H]1C[C@@H]2CC[C@@H](C)[C@@](O)(O2)C(=O)C(=O)N2CCCC[C@H]2C(=O)O[C@H]([C@H](C)C[C@@H]2CC[C@@H](OCCO)[C@H](OC)C2)CC(=O)[C@H](C)/C=C(\C)[C@@H](O)[C@@H](OC)C(=O)[C@H](C)C[C@H](C)/C=C/C=C/C=C/1C | Compound metabolized
CC(C)NCC(O)COc1ccc(CC(N)=O)cc1 (stereo not drawn) | Compound NOT metabolized

Hi! Can you tell me Bacterial Biotransformation for each of these molecules?
1. C[C@]12CCC(=O)C=C1CC[C@@H]1[C@@H]2C(=O)C[C@@]2(C)[C@H]1CC[C@]2(O)C(=O)CO
2. Cn1cnc([N+](=O)[O-])c1Sc1ncnc2nc[nH]c12
3. CCCC1O[C@@H]2C[C@H]3[C@@H]4CCC5=CC(=O)C=C[C@]5(C)[C@H]4[C@@H](O)C[C@]3(C)[C@]2(C(=O)CO)O1 (stereo partly drawn) [BUDESONIDE]
4. C[C@H]1C[C@@H]2[C@H]([C@@H](O)C[C@@]3(C)[C@H]2CC[C@]3(O)C(=O)CO)[C@@]2(C)C=CC(=O)C=C12
5. CCOc1nc2cccc(C(=O)O)c2n1Cc1ccc(-c2ccccc2-c2nnn[nH]2)cc1
6. CCOC(=O)C1=C(COCCN)NC(C)=C(C(=O)OC)C1c1ccccc1Cl (stereo not drawn)

1: Compound metabolized; 2: Compound metabolized; 3: Compound NOT metabolized; 4: Compound metabolized; 5: Compound NOT metabolized; 6: Compound metabolized

Hi! Can you tell me Bacterial Biotransformation for each of these molecules?
1. C[C@]12C=CC(=O)C=C1CC[C@@H]1[C@@H]2C(=O)C[C@@]2(C)[C@H]1CC[C@]2(O)C(=O)CO
2. C=CC[C@@H]1/C=C(\C)C[C@H](C)C[C@H](OC)[C@H]2O[C@@](O)(C(=O)C(=O)N3CCCC[C@H]3C(=O)O[C@H](/C(C)=C/[C@@H]3CC[C@@H](O)[C@H](OC)C3)[C@H](C)[C@@H](O)CC1=O)[C@H](C)C[C@@H]2OC.O

Compound metabolized
Compound NOT metabolized
